Source listed as patent US20230391774A1.

# EC50 per record follows
Biological target: flTau aggregates (longest isoform of human Tau, 2N4R) (Homo sapiens)
Construct: 35 μM of recombinant full-length (fl) Tau in phosphate-buffered saline (PBS) were aggregated; purchased Biotechne; host or cells: bacteria
Sequence (P10636 1-441 isoform P10636-8): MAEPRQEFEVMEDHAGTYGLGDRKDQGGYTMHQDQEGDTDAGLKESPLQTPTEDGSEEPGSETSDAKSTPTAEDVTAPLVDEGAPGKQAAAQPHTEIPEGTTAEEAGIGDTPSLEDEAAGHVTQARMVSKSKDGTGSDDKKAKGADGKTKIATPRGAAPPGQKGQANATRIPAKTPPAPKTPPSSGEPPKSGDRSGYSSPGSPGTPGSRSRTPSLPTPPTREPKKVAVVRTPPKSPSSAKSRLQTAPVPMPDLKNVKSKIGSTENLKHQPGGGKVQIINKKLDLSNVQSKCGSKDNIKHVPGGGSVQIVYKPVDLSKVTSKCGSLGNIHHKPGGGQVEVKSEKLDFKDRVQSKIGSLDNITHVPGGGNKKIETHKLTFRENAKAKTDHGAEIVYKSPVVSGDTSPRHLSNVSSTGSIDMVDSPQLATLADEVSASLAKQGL
Test: Full-length Tau (flTau) disaggregation assay by Thioflavin T (ThT)
Type: biochemical
Conditions: ThT fluorescence; 60 nM flTau aggregates, 30 minutes at RT; read-out: flTau disaggregation EC50

Worked set:
{"columns": ["molecule", "EC50"],
 "data": [
  ["Cn1cc(C2CCN(c3cc4nc(N5CCOCC5)oc4cn3)C2)c2cc(F)cnc21 (stereo not drawn) [Example 87]", "1 to 10 µM"],
  ["Fc1cccc2c(C3CCN(c4ccc5oc(N6CCOCC6)nc5c4)CC3)n[nH]c12", "< 1 µM"]
]}

Now examine the next entry.
Query: Provide only the value of recorded EC50 for O=C(Nc1ccc2nc(N3CCOCC3)sc2c1)c1c[nH]c2ccc(F)cc12
Reply: < 1 µM

###

# EC50 per record follows
Target: Tau K18 fragment aggregates (amino acids 244 to 372 of human Tau441) (Homo sapiens, UniProt P10636)
Construct: encompassing amino acids 244 to 372 of the longest isoform (2N4R) of human Tau441
Sequence (P10636 561-689): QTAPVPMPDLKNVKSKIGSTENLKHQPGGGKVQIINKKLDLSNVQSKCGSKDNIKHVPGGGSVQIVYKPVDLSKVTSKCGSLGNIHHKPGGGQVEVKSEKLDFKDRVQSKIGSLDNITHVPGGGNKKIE
Experiment: Tau K18 disaggregation assay by ThT
Settings: ThT fluorescence; 2 μM K18 aggregates, 30 minutes at RT
Where a name gives a salt, the structure may show the parent alone.

Worked set:
{"columns": ["compound", "EC50"],
 "data": [
  ["Cn1cc(C2CCN(c3ccc4oc(N5CCOCC5)nc4c3)C2)c2cc(F)cnc21 (stereo not shown) [Example 33]", "1 to 10 µM"],
  ["c1ccc2c(C3CCN(c4ccc5nc(N6CCOCC6)sc5n4)CC3)c[nH]c2c1 [Example 108, hydrochloride]", "10 to 50 µM"],
  ["c1ccc2c(C3CCN(c4ccc5nc(N6CCOCC6)oc5n4)CC3)c[nH]c2c1 [Example 101]", "10 to 50 µM"]
]}

Now examine the next entry.
Query: Provide only the value of recorded EC50 for O=C(Nc1ccc2nc(N3CCOCC3)oc2c1)c1c[nH]c2ccccc12 [Example 14]
Reply: 10 to 50 µM
